# tgt: D(2) dopamine receptor (Rattus norvegicus)
# testSummary: In vitro inhibition of [3H]N-0437 binding to Dopamine receptor D2 in rat striatal membranes
# Assay type: cell membranes, Membrane
measuredParameter: pIC50
Scale note: pIC50 = -log10(concentration in M).

Note down pIC50 recorded for Oc1cccc([C@H]2CCCN3CCCC23)c1 (some centres not stated) 7.35

Note down pIC50 recorded for Oc1cccc(C2CCCN3CCCC23)c1 (racemic) 7.12

Note down pIC50 recorded for O=C(O)C(=O)O.Oc1cccc(C2CCC3CCCCN3C2)c1 (configuration not stated) 5.10

Note down pIC50 recorded for Oc1cccc(C2CCCN3CCCCC23)c1 (configuration not stated) 6.24

Note down pIC50 recorded for CCCN(CCc1ccsc1)C1CCc2c(O)cccc2C1 (configuration not stated) 9.21

Note down pIC50 recorded for Oc1cccc(C2=CCCN3CCCCC23)c1 (configuration not stated) 6.49

Note down pIC50 recorded for Oc1cccc([C@@H]2CCCN3CCCC23)c1 (some centres not stated) 6.77

----------
# tgt: D(2) dopamine receptor (Rattus norvegicus, UniProt P61169)
# Sequence (P61169 whole entry): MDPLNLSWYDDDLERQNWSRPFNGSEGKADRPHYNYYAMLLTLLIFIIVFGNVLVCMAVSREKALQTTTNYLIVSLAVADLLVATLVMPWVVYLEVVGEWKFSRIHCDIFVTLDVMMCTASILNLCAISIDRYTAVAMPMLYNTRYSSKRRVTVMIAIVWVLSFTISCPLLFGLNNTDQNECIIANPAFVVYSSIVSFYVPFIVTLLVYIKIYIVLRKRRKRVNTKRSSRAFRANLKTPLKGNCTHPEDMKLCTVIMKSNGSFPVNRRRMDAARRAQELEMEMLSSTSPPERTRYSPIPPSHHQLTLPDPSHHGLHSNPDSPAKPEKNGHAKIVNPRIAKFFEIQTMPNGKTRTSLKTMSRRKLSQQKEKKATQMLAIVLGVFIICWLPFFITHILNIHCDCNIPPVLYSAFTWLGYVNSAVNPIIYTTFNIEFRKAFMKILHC
# testSummary: In vitro inhibition of [3H]spiperone binding to Dopamine receptor D2 in rat striatal membranes
# Format: cell membranes, Membrane
measuredParameter: pIC50
Scale note: pIC50 = -log10(concentration in M).

For D(2) dopamine receptor (Rattus norvegicus, UniProt P61169), give pIC50 of the listed molecule: Oc1cccc([C@@H]2CCCN3CCCC23)c1 (some centres not stated) 5.19

For D(2) dopamine receptor (Rattus norvegicus, UniProt P61169), give pIC50 of the listed molecule: Oc1cccc(C2CCCN3CCCCC23)c1 (configuration not stated) 4.89

For D(2) dopamine receptor (Rattus norvegicus, UniProt P61169), give pIC50 of the listed molecule: CCCN(CCc1ccsc1)C1CCc2c(O)cccc2C1 (configuration not stated) 8.06

For D(2) dopamine receptor (Rattus norvegicus, UniProt P61169), give pIC50 of the listed molecule: O=C(O)C(=O)O.Oc1cccc(C2CCC3CCCCN3C2)c1 (configuration not stated) 4.40

For D(2) dopamine receptor (Rattus norvegicus, UniProt P61169), give pIC50 of the listed molecule: Oc1cccc([C@H]2CCCN3CCCC23)c1 (some centres not stated) 5.31

For D(2) dopamine receptor (Rattus norvegicus, UniProt P61169), give pIC50 of the listed molecule: Oc1cccc(C2CCCN3CCCC23)c1 (racemic) 5.42

For D(2) dopamine receptor (Rattus norvegicus, UniProt P61169), give pIC50 of the listed molecule: Oc1cccc(C2=CCCN3CCCCC23)c1 (configuration not stated) 5.28

Reference for the values: ChEMBL document CHEMBL1124712
